Data origin, for the record: the FLAb antibody collection (doi:10.7554/elife.23156)

Quick list: yeast surface expression per entry.
B1: scFv; the commonest letter at each place (parent)
chain 1: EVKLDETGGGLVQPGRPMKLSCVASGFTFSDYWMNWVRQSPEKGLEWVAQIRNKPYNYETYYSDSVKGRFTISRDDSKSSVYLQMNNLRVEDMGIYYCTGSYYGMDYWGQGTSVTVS
chain 2: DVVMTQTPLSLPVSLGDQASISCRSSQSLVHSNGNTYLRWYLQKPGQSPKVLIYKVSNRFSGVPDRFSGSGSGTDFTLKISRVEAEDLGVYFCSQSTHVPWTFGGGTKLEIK

- Variants of: B1
- PROTOCOL NOTES: yeast surface expression (ratio to wild type); higher = more expressed
- PROTOCOL CONDITIONS: format: scFv 4-4-20, heavy + light

{"CHANGE": "chain 1 D31V M34E", "yeast surface expression": 2.76}
{"CHANGE": "chain 1 V37W", "yeast surface expression": 0.746}
{"CHANGE": "chain 1 G100M G109M", "yeast surface expression": 0.274}
{"CHANGE": "chain 1 T28V N35H", "yeast surface expression": 0.671}
{"CHANGE": "chain 1 W33T N35Q", "yeast surface expression": 0.887}
{"CHANGE": "chain 1 W108S G109S", "yeast surface expression": 0.37}
{"CHANGE": "chain 1 T28V Y32S V37F", "yeast surface expression": 0.818}
{"CHANGE": "chain 1 T28P D31S", "yeast surface expression": 1.07}
{"CHANGE": "chain 1 S101W D106I", "yeast surface expression": 0.296}
{"CHANGE": "chain 1 M105R G109T", "yeast surface expression": 0.344}
{"CHANGE": "chain 1 T28G D31C", "yeast surface expression": 0.472}
{"CHANGE": "chain 1 S101T Y103Q", "yeast surface expression": 1.11}
{"CHANGE": "chain 1 T28V", "yeast surface expression": 1}
{"CHANGE": "chain 1 G100Q Y107C", "yeast surface expression": 0.176}
{"CHANGE": "chain 1 T28K M34K", "yeast surface expression": 0.284}
{"CHANGE": "chain 1 M34K N35S", "yeast surface expression": 1.46}
{"CHANGE": "chain 1 F29L W33Y", "yeast surface expression": 0.732}
{"CHANGE": "chain 1 M34S W36A", "yeast surface expression": 0.437}
{"CHANGE": "chain 1 G104Q", "yeast surface expression": 0.824}
{"CHANGE": "chain 1 F29T Y32R", "yeast surface expression": 1.06}
{"CHANGE": "chain 1 Y102S W108T", "yeast surface expression": 0.599}
{"CHANGE": "chain 1 T28Y S30L", "yeast surface expression": 0.792}
{"CHANGE": "chain 1 D31E W33N", "yeast surface expression": 0.845}
{"CHANGE": "chain 1 G100L D106L", "yeast surface expression": 0.395}
{"CHANGE": "chain 1 Y32C M34T", "yeast surface expression": 0.664}
{"CHANGE": "chain 1 M34I V37M", "yeast surface expression": 0.847}
{"CHANGE": "chain 1 T28D F29T W36L", "yeast surface expression": 0.514}
{"CHANGE": "chain 1 F29I Y32G", "yeast surface expression": 1.08}
{"CHANGE": "chain 1 S30C W33L", "yeast surface expression": 0.696}
{"CHANGE": "chain 1 D106V", "yeast surface expression": 0.734}
{"CHANGE": "chain 1 S30H D31K", "yeast surface expression": 0.668}
{"CHANGE": "chain 1 M105D W108T", "yeast surface expression": 0.455}
{"CHANGE": "chain 1 G100A M105Q", "yeast surface expression": 1.15}
{"CHANGE": "chain 1 Y103T G104W", "yeast surface expression": 0.534}
{"CHANGE": "chain 1 D31Y V37Q", "yeast surface expression": 1.38}
{"CHANGE": "chain 1 W33N V37N", "yeast surface expression": 0.652}
{"CHANGE": "chain 1 Y103V Y107M", "yeast surface expression": 0.53}
{"CHANGE": "chain 1 M105D G109F", "yeast surface expression": 0.218}
{"CHANGE": "chain 1 F29G N35I", "yeast surface expression": 0.645}
{"CHANGE": "chain 1 S30D V37P", "yeast surface expression": 0.55}
{"CHANGE": "chain 1 F29L W33A", "yeast surface expression": 0.763}
{"CHANGE": "chain 1 S101I Y103P M105E", "yeast surface expression": 0.462}
{"CHANGE": "chain 1 Y103E W108C", "yeast surface expression": 0.758}
{"CHANGE": "chain 1 W33D M34W", "yeast surface expression": 1.03}
{"CHANGE": "chain 1 D31G N35A", "yeast surface expression": 0.664}
{"CHANGE": "chain 1 Y32F M34F", "yeast surface expression": 0.862}
